Test system: L. donovani LdBOB axenic amastigotes
Assay: L. donovani axenic amastigote assay (Alamar blue)
Assay type: cell-based, Leishmania donovani
Conditions: 72 h, Alamar blue
Protocol: L. donovaniLdBOB axenic amastigotes or L. infantum JPCM5 MCAN/ES/98/LLM-87 were cultured at 37 °C in modified Eagle’s medium (HOMEM; L. infantum) and axenic amastigotes were incubated for 72 h with compounds, followed by Alamar blue-based assay as previously described.
pEC50: −log10 of the molar value.
MEASURE NAME: pEC50

P: Cn1c2ccccc2c2cc(C(=O)N3CCN(c4cccc(Cl)c4)CC3)nc(-c3ccccc3)c21
Q: COc1ccc(N2CCN(C(=O)c3cc4c5ccccc5n(C)c4c(-c4ccccc4)n3)CC2)cc1
R: Cn1c2ccccc2c2cc(C(=O)N3CCN(Cc4ccccc4)CC3)nc(-c3ccccc3)c21
Q. hey, can you rank those compounds up there by pEC50? biggest number first please Answer by listing the labels in the requested order.
A. Q, P, R
(Q: 6.05, P: 5.66, R: 5.46)
